# Lookup of reported % recovery in elution A keyed by entry
TARGET_DESC: REFACTO® (recombinant factor VIII-like polypeptide consisting of amino acids 1-743 and 1638 through 2332 of human factor VIII) (human) (UniProt P00451)
Sequence (P00451 20-762, chain 1 of 2): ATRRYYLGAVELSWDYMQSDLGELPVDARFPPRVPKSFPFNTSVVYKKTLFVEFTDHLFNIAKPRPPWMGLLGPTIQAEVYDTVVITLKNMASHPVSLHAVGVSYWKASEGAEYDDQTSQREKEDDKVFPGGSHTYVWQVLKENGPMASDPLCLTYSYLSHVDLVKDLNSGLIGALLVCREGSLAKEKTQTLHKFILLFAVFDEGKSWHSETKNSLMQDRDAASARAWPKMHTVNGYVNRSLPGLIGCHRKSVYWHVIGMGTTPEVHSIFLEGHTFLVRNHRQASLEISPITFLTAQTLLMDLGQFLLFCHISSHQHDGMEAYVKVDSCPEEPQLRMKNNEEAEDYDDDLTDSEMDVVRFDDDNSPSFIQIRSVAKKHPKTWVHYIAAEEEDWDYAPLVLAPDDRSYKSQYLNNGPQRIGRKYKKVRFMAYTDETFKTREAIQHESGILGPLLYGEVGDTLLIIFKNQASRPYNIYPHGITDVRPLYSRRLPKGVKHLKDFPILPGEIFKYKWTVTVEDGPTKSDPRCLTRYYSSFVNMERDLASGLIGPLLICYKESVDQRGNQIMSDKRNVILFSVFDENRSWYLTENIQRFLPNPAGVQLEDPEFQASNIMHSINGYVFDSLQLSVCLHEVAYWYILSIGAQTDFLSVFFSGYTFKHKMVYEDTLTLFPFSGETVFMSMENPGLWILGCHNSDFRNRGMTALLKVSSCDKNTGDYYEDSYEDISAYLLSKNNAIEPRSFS
Sequence (P00451 1657-2351, chain 2 of 2): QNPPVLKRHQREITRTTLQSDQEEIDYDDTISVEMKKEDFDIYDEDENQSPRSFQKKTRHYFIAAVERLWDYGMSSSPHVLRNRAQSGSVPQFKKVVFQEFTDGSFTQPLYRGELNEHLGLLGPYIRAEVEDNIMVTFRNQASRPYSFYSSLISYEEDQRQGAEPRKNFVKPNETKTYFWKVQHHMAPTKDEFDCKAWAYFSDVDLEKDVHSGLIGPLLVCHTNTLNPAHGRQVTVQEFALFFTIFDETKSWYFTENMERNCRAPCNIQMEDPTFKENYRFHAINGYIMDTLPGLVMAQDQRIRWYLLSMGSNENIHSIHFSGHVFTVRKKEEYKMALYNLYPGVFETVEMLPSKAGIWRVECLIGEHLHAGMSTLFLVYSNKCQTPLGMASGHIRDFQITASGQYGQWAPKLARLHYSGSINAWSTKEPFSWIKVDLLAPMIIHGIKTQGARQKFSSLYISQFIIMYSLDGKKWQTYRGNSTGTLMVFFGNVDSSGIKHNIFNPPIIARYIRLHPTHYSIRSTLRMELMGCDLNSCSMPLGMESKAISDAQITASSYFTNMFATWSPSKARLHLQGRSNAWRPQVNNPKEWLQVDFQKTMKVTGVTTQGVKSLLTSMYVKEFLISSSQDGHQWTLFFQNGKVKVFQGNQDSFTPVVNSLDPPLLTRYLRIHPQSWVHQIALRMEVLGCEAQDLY
ASSAY_EXPLANATION: affinity column, peptide on Toyopearl Formyl 650-M; fraction quantified by RP-HPLC
Positions of bridges follow the written chain, without caps; N, C: chain ends. No end group written: not given here. *: point of attachment. NHNH2 = NN*
Write down the numeric answer in % and omit the unit.

{"columns": ["BINDER", "ASSAY_RESULT"],
 "data": [
  ["AEGTGDHPCGSWLRPCLHDPGPEGGGS-NHNH2 (disulfide 9-16 (inferred)) [CS-453 (…-NHNH2)]", 43.2],
  ["AEGTGDFCWVFPFQHCADPGPEGGGS-NHNH2 (disulfide 8-16 (inferred)) [CS-459 (…-NHNH2)]", 42.1],
  ["AEGTGDFCWVFPFHHCFDPGPEGGGS-NHNH2 (disulfide 8-16 (inferred)) [CS-460 (…-NHNH2)]", 28.8]
]}

input: Please report the recorded % recovery in elution A for AEGTGDFCWVFAFDHCHDPGPEGGGS-NHNH2 (disulfide 8-16) [CS-458 (…-NHNH2)] .
output: 54.3
